# PROTOCOL_DESCRIPTION: Pharmacokinetics of a single intraperitoneal dose in mice
# Assay type: in vivo, C57BL/6J mice
# RUN_CONDITIONS: male, C57BL/6J, mouse, plasma, ip, 5 mg/kg
PARAMETER: AUC (µM·h)

# LINE_NOTATION, PARAMETER, UNIT_TAG, MEAS_VALUE
rows = [
    ("Cc1ccc(NC(=O)c2ccc(CN3CC[C@H](N(C)C)C3)c(C(F)(F)F)c2)cc1Nc1nccc(-c2cncnc2)n1", "AUC", "µM·h", 69.5),
    ("COc1cc(Nc2c(C#N)cnc3cc(OCCCN4CCN(C)CC4)c(OC)cc23)c(Cl)cc1Cl", "AUC", "µM·h", 51.7),
]
